- TARGET UNDER TEST: JNK1 (Homo sapiens)
- MEASUREMENT DESCRIPTION: IC50 assay for JNK kinase inhibition, JNK1
- Assay type: biochemical

{"columns": ["SAMPLE SMILES", "UNIT DESCRIPTOR", "IC50"],
 "data": [
  ["Cc1ccc2c(-c3ccnc(N[C@@H]4CN(C(=O)c5ccc(NC(=O)/C=C/CN(C)C)cc5)C[C@@H]4C)n3)c(-c3ccccc3)nn2c1", "nM", 2390],
  ["CN(C)C/C=C/C(=O)Nc1ccc(C(=O)N2CCC[C@@H](Nc3nccc(-c4c(-c5ccccc5)nn5ccccc45)n3)C2)cc1", "nM", 569],
  ["CN(C)C/C=C/C(=O)Nc1ccc(C(=O)N2CC[C@H](Nc3nccc(-c4c(-c5cccc(Cl)c5)nn5ccccc45)n3)C2)cc1", "nM", 90.7]
]}

---

- TARGET UNDER TEST: JNK1 (Homo sapiens, UniProt P45983)
- Sequence (P45983 whole entry): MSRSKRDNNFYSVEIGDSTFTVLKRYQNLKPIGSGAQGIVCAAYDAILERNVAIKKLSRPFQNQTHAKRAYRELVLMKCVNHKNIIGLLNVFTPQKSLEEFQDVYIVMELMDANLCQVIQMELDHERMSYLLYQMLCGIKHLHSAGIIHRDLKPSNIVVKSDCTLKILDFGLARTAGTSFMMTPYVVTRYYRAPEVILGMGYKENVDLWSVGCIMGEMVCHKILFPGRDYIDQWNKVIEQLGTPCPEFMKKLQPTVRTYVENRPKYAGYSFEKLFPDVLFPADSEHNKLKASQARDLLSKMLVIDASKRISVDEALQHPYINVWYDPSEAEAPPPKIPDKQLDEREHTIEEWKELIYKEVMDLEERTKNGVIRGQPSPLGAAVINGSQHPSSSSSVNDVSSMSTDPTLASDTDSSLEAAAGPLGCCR
- MEASUREMENT DESCRIPTION: IC50 assay for JNK kinase inhibition, JNK1
- Format: biochemical
Entries and their log10 of IC50 values follow.
MEASUREMENT NAME: log10 of IC50 (log10 of the value in nM)

{"columns": ["COMPOUND", "MEASUREMENT NAME", "ENDPOINT RESULT"],
 "data": [
  ["CN(C)C/C=C/C(=O)Nc1ccc(C(=O)N2CCC[C@H](Nc3nccc(-c4c(-c5ccccc5)nn5ccccc45)n3)C2)cc1 [I-1]", "log10 of IC50", 1.65],
  ["CN(C)C/C=C/C(=O)Nc1ccc(C(=O)NC2CCCC(Nc3nccc(-c4c(-c5ccccc5)nn5ccccc45)n3)C2)cc1 (stereo not shown) [I-15]", "log10 of IC50", 2.68],
  ["CN(C)CCCC(=O)Nc1ccc(C(=O)N2CCC[C@@H](Nc3nccc(-c4c(-c5ccccc5)nn5ccccc45)n3)C2)cc1 [I-6]", "log10 of IC50", 2.44],
  ["CN(C)CCCC(=O)Nc1ccc(C(=O)N2CCC[C@H](Nc3nccc(-c4c(-c5ccccc5)nn5ccccc45)n3)C2)cc1 [I-2]", "log10 of IC50", 1.81],
  ["CN(C)C/C=C/C(=O)Nc1ccc(C(=O)N2CC[C@@H](Nc3nccc(-c4c(-c5ccccc5)nn5ccccc45)n3)C2)cc1 [I-7]", "log10 of IC50", 1.10],
  ["CN(C)C/C=C/C(=O)Nc1ccc(C(=O)N2CCCC[C@H](Nc3nccc(-c4c(-c5ccccc5)nn5ccccc45)n3)C2)cc1 [I-13]", "log10 of IC50", 2.49],
  ["CN(C)C/C=C/C(=O)Nc1ccc(C(=O)N2CCCC[C@@H](Nc3nccc(-c4c(-c5ccccc5)nn5ccccc45)n3)C2)cc1 [I-9]", "log10 of IC50", 2.61]
]}

---

- TARGET UNDER TEST: JNK1 (Homo sapiens, UniProt P45983)
- MEASUREMENT DESCRIPTION: IC50 assay for JNK kinase inhibition, JNK1
- Type: biochemical
MEASUREMENT NAME: log10(IC50) (log10 of the value in nM)

{"columns": ["MOLECULE", "MEASUREMENT NAME", "ENDPOINT RESULT"],
 "data": [
  ["CN(C)C/C=C/C(=O)Nc1ccc(NC(=O)N2CC[C@H](Nc3nccc(-c4c(-c5ccccc5)nn5ccccc45)n3)C2)cc1 [I-18]", "log10(IC50)", 2.00],
  ["C=CC(=O)Nc1ccc(C(=O)N2CCC[C@H](Nc3nccc(-c4c(-c5ccccc5)nn5ccccc45)n3)C2)cc1 [I-3]", "log10(IC50)", 1.41],
  ["COc1cccn2nc(-c3ccccc3)c(-c3ccnc(N[C@@H]4CN(C(=O)c5ccc(NC(=O)/C=C/CN(C)C)cc5)C[C@@H]4C)n3)c12 [I-32]", "log10(IC50)", 3.26],
  ["CN(C)C/C=C/C(=O)Nc1ccc(C(=O)N2CC[C@H](Nc3nccc(-c4c(-c5ccccc5)nn5ccccc45)n3)C2)cc1 [I-11]", "log10(IC50)", 2.18],
  ["C[C@H]1CN(C(=O)c2ccc(NC(=O)CCCN(C)C)cc2)C[C@H]1Nc1nccc(-c2c(-c3ccccc3)nn3ccccc23)n1 [I-27]", "log10(IC50)", 3.41],
  ["CN(C)CCCC(=O)Nc1ccc(C(=O)N2CC[C@H](Nc3nccc(-c4c(-c5ccccc5)nn5ccccc45)n3)C2)cc1 [I-12]", "log10(IC50)", 2.51],
  ["CN(C)C/C=C/C(=O)Nc1cccc(C(=O)N2CC[C@H](Nc3nccc(-c4c(-c5ccccc5)nn5ccccc45)n3)C2)c1 [I-16]", "log10(IC50)", 1.58],
  ["CN(C)CCCC(=O)Nc1ccc(C(=O)N2CCCC[C@H](Nc3nccc(-c4c(-c5ccccc5)nn5ccccc45)n3)C2)cc1 [I-14]", "log10(IC50)", 2.50],
  ["CN(C)C/C=C/C(=O)Nc1ccc2c(N3CC[C@H](Nc4nccc(-c5c(-c6ccccc6)nn6ccccc56)n4)C3)nccc2c1 [I-20]", "log10(IC50)", 2.23],
  ["Nc1ccc(C(=O)N2CCC[C@H](Nc3nccc(-c4c(-c5ccccc5)nn5ccccc45)n3)C2)cc1 [I-4]", "log10(IC50)", 1.33],
  ["CN(C)CCCC(=O)Nc1ccc(C(=O)N2CCCC[C@@H](Nc3nccc(-c4c(-c5ccccc5)nn5ccccc45)n3)C2)cc1 [I-10]", "log10(IC50)", 2.39],
  ["CN(C)C/C=C/C(=O)Nc1ccc(C(=O)N2CC[C@H](Nc3nccc(-c4c(-c5ccc(Cl)cc5)nn5ccccc45)n3)C2)cc1 [I-26]", "log10(IC50)", 0.95],
  ["CN(C)CCCC(=O)Nc1ccc(C(=O)N2CC[C@@H](Nc3nccc(-c4c(-c5ccccc5)nn5ccccc45)n3)C2)cc1 [I-8]", "log10(IC50)", 1.87]
]}

---

- TARGET UNDER TEST: JNK3 (Homo sapiens)
- Sequence (P53779 whole entry): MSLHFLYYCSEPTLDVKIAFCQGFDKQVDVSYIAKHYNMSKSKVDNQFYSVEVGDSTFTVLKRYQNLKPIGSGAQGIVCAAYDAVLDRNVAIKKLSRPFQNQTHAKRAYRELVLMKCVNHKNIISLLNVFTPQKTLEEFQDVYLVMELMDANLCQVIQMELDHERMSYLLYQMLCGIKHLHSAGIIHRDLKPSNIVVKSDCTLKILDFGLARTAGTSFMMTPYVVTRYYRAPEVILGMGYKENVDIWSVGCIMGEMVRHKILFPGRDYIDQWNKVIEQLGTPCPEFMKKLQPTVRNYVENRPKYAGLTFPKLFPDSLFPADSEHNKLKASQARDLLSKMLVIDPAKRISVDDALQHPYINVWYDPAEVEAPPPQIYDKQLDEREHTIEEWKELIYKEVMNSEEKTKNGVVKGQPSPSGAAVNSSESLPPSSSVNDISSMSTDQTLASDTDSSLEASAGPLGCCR
- MEASUREMENT DESCRIPTION: IC50 assay for JNK kinase inhibition, JNK3
- Type: biochemical
Entries and their IC50 values follow.

{"columns": ["COMPOUND", "TARGET UNDER TEST", "INEQUALITY SIGN", "IC50, nM"],
 "data": [
  ["CN(C)CCCC(=O)Nc1ccc(C(=O)N2CCCC[C@@H](Nc3nccc(-c4c(-c5ccccc5)nn5ccccc45)n3)C2)cc1 [I-10]", "JNK3 (Homo sapiens)", "=", 48.1],
  ["CN(C)C/C=C/C(=O)Nc1ccc(C(=O)N2CC[C@H](Nc3ncc(Cl)c(-c4c(-c5ccccc5)nn5ccccc45)n3)C2)cc1 [I-21]", "JNK3 (Homo sapiens)", "=", 359],
  ["CN(C)C/C=C/C(=O)Nc1ccc(C(=O)N2CC[C@H](Nc3nccc(-c4c(-c5ccccc5)nn5ccccc45)n3)C2)cc1 [I-11]", "JNK3 (Homo sapiens)", "=", 51.4],
  ["CN(C)CCCC(=O)Nc1ccc(C(=O)N2CCC[C@H](Nc3nccc(-c4c(-c5ccccc5)nn5ccccc45)n3)C2)cc1 [I-2]", "JNK3 (Homo sapiens)", "=", 20],
  ["CN(C)C/C=C/C(=O)Nc1cccc(C(=O)N2CC[C@H](Nc3nccc(-c4c(-c5ccccc5)nn5ccccc45)n3)C2)c1 [I-16]", "JNK3 (Homo sapiens)", "=", 10.9],
  ["COc1cccn2nc(-c3ccccc3)c(-c3ccnc(N[C@@H]4CN(C(=O)c5ccc(NC(=O)/C=C/CN(C)C)cc5)C[C@@H]4C)n3)c12 [I-32]", "JNK3 (Homo sapiens)", ">", 3330]
]}

---

- TARGET UNDER TEST: JNK2 (Homo sapiens)
- Sequence (P45984 whole entry): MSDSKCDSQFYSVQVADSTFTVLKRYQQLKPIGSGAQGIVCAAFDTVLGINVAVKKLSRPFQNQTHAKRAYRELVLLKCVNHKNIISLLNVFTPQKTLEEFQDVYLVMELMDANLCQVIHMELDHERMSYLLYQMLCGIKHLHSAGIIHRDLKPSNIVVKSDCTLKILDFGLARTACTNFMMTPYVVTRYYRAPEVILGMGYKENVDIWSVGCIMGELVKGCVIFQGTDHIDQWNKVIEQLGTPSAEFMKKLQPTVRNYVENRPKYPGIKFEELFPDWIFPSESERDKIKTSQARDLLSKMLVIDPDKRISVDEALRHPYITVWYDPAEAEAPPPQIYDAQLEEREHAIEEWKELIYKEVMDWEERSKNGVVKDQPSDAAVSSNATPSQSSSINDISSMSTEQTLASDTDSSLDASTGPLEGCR
- MEASUREMENT DESCRIPTION: IC50 assay for JNK kinase inhibition, JNK2
- Format: biochemical
Label scheme, based on IC50: low range: < 7 nM; mid range: ≥ 7 nM and < 30 nM; high range: ≥ 30 nM

{"columns": ["MOLECULE", "DISCRETE LABEL"],
 "data": [
  ["CN(C)C/C=C/C(=O)Nc1ccc(C(=O)N2CCCC[C@@H](Nc3nccc(-c4c(-c5ccccc5)nn5ccccc45)n3)C2)cc1 [I-9]", "mid range"],
  ["Cc1ccc2c(-c3ccnc(N[C@H]4CCN(C(=O)c5ccc(NC(=O)/C=C/CN(C)C)cc5)C4)n3)c(-c3ccccc3)nn2c1 [I-24]", "low range"],
  ["CN(C)C/C=C/C(=O)Nc1ccc(C(=O)N2CC[C@H](Nc3nccc(-c4c(-c5ccc(Cl)cc5)nn5ccccc45)n3)C2)cc1 [I-26]", "high range"],
  ["CN(C)C/C=C/C(=O)Nc1ccc2c(N3CC[C@H](Nc4nccc(-c5c(-c6ccccc6)nn6ccccc56)n4)C3)nccc2c1 [I-20]", "mid range"],
  ["CN(C)C/C=C/C(=O)Nc1ccc(C(=O)N2CCCC[C@H](Nc3nccc(-c4c(-c5ccccc5)nn5ccccc45)n3)C2)cc1 [I-13]", "high range"],
  ["Nc1ccc(C(=O)N2CCC[C@H](Nc3nccc(-c4c(-c5ccccc5)nn5ccccc45)n3)C2)cc1 [I-4]", "low range"],
  ["Cc1ccc2c(-c3ccnc(N[C@@H]4CN(C(=O)c5ccc(NC(=O)/C=C/CN(C)C)cc5)C[C@@H]4C)n3)c(-c3ccccc3)nn2c1 [I-31]", "high range"],
  ["CN(C)C/C=C/C(=O)Nc1ccc(C(=O)N2CCC[C@H](Nc3nccc(-c4c(-c5ccccc5)nn5ccccc45)n3)C2)cc1 [I-1]", "low range"],
  ["CN(C)CCCC(=O)Nc1ccc(C(=O)N2CCCC[C@H](Nc3nccc(-c4c(-c5ccccc5)nn5ccccc45)n3)C2)cc1 [I-14]", "mid range"],
  ["C[C@H]1CN(C(=O)c2ccc(NC(=O)CCCN(C)C)cc2)C[C@H]1Nc1nccc(-c2c(-c3ccccc3)nn3ccccc23)n1 [I-27]", "high range"],
  ["CN(C)CCCC(=O)Nc1ccc(C(=O)N2CC[C@H](Nc3nccc(-c4c(-c5ccccc5)nn5ccccc45)n3)C2)cc1 [I-12]", "mid range"],
  ["Cc1cccn2nc(-c3ccccc3)c(-c3ccnc(N[C@H]4CCN(C(=O)c5ccc(NC(=O)/C=C/CN(C)C)cc5)C4)n3)c12 [I-23]", "high range"],
  ["CN(C)CCCC(=O)Nc1ccc(C(=O)N2CCCC[C@@H](Nc3nccc(-c4c(-c5ccccc5)nn5ccccc45)n3)C2)cc1 [I-10]", "mid range"],
  ["CN(C)CCCC(=O)Nc1ccc(C(=O)N2CC[C@@H](Nc3nccc(-c4c(-c5ccccc5)nn5ccccc45)n3)C2)cc1 [I-8]", "low range"],
  ["CN(C)C/C=C/C(=O)Nc1ccc(C(=O)N2CC[C@H](Nc3ncc(Cl)c(-c4c(-c5ccccc5)nn5ccccc45)n3)C2)cc1 [I-21]", "high range"],
  ["C=CC(=O)Nc1ccc(C(=O)N2CCC[C@H](Nc3nccc(-c4c(-c5ccccc5)nn5ccccc45)n3)C2)cc1 [I-3]", "low range"],
  ["CN(C)C/C=C/C(=O)Nc1ccc(C(=O)N2CC[C@H](Nc3nccc(-c4c(-c5ccc(F)cc5)nn5ccccc45)n3)C2)cc1 [I-22]", "low range"],
  ["COc1cccn2nc(-c3ccccc3)c(-c3ccnc(N[C@@H]4CN(C(=O)c5ccc(NC(=O)/C=C/CN(C)C)cc5)C[C@@H]4C)n3)c12 [I-32]", "high range"],
  ["CN(C)CCCC(=O)Nc1ccc(C(=O)N2CCC[C@@H](Nc3nccc(-c4c(-c5ccccc5)nn5ccccc45)n3)C2)cc1 [I-6]", "high range"],
  ["CN(C)C/C=C/C(=O)Nc1ccc(C(=O)NC2CCCC(Nc3nccc(-c4c(-c5ccccc5)nn5ccccc45)n3)C2)cc1 (stereo not shown) [I-15]", "high range"],
  ["CN(C)C/C=C/C(=O)Nc1ccc(C(=O)N2CC[C@H](Nc3nccc(-c4c(-c5cccc(Cl)c5)nn5ccccc45)n3)C2)cc1 [I-25]", "low range"],
  ["CN(C)C/C=C/C(=O)Nc1ccc(C(=O)N2CC[C@@H](Nc3nccc(-c4c(-c5ccccc5)nn5ccccc45)n3)C2)cc1 [I-7]", "low range"],
  ["CN(C)C/C=C/C(=O)Nc1ccc(NC(=O)N2CC[C@H](Nc3nccc(-c4c(-c5ccccc5)nn5ccccc45)n3)C2)cc1 [I-18]", "mid range"],
  ["CN(C)CCCC(=O)Nc1ccc(C(=O)N2CCC[C@H](Nc3nccc(-c4c(-c5ccccc5)nn5ccccc45)n3)C2)cc1 [I-2]", "mid range"],
  ["CN(C)C/C=C/C(=O)Nc1ccc(C(=O)N2CCC[C@@H](Nc3nccc(-c4c(-c5ccccc5)nn5ccccc45)n3)C2)cc1 [I-5]", "mid range"],
  ["CN(C)C/C=C/C(=O)Nc1ccc(C(=O)N2CC[C@H](Nc3nccc(-c4c(-c5ccccc5)nn5ccccc45)n3)C2)cc1 [I-11]", "low range"],
  ["CN(C)C/C=C/C(=O)Nc1ccc(C(=O)N2CC3CC(Nc4nccc(-c5c(-c6ccccc6)nn6ccccc56)n4)C2C3)cc1 (stereo not shown) [I-17]", "high range"]
]}

Data credit: patent US12637453B2
